Ref: the supplement of paper PMC3353916

Each entry below lists one item and its recorded percent infected value.
- Tested on: Sindbis virus TE/5'2J-GFP
- experimental-details: percent infected (GFP+ in RFP+ ISG-expressing cells); higher = more infection (less antiviral activity)
- condition-details: experiment: confirmatory screen 3; BHK/NZAP-Zeo (ZAP)
Report only the number, with the unit % understood.

Would you please look over these solved cases?
entry-sequence: MEKGPVRAPAEKPRGARCSNGFPERDPPRPGPSRPAEKPPRPEAKSAQPADGWKGERPRSEEDNELNLPNLAAAYSSILSSLGENPQRQGLLKTPWRAASAMQFFTKGYQETISDVLNDAIFDEDHDEMVIVKDIDMFSMCEHHLVPFVGKVHIGYLPNKQVLGLSKLARIVEIYSRRLQVQERLTKQIAVAITEALRPAGVGVVVEATHMCMVMRGVQKMNSKTVTSTMLGVFREDPKTREEFLTLIRS [GCH1]
units-symbol: %
percent infected: 92.2
--
entry-sequence: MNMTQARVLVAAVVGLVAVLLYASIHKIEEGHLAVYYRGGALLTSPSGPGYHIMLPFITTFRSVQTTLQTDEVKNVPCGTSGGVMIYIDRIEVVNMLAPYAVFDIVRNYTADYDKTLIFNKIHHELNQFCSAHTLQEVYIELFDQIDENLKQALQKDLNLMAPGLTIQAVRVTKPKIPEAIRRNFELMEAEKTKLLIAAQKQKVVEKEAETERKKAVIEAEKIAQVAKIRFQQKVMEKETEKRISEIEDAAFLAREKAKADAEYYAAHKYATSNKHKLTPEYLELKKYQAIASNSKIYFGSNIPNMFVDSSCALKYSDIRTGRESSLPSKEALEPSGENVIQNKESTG [ERLIN1]
units-symbol: %
percent infected: 91.6

Requested read-out: percent infected. Entry: MTLNNVTMRQGTVGMQPQQQRWSIPADGRHLMVQKEPHQYSHRNRHSATPEDHCRRSWSSDSTDSVISSESGNTYYRVVLIGEQGVGKSTLANIFAGVHDSMDSDCEVLGEDTYERTLMVDGESATIILLDMWENKGENEWLHDHCMQVGDAYLIVYSITDRASFEKASELRIQLRRARQTEDIPIILVGNKSDLVRCREVSVSEGRACAVVFDCKFIETSAAVQHNVKELFEGIVRQVRLRRDSKEKNERRLAYQKRKESMPRKARRFWGKIVAKNNKNMAFKLKSKSCHDLSVL [GEM] 93.5

----------
- Test system: Sindbis virus TE/5'2J-GFP
- experimental-details: percent infected (GFP+ in RFP+ ISG-expressing cells); higher = more infection (less antiviral activity)
- condition-details: experiment: confirmatory screen 3; BHK/NZAP-Zeo (ZAP)
property-name: percent infected (%)
Your answer is read as %, so omit the unit and give the number.

A selection of reference data follows.
entry-sequence: MALLDVCGAPRGQRPESALPVAGSGRRSDPGHYSFSMRSPELALPRGMQPTEFFQSLGGDGERNVQIEMAHGTTTLAFKFQHGVIAAVDSRASAGSYISALRVNKVIEINPYLLGTMSGCAADCQYWERLLAKECRLYYLRNGERISVSAASKLLSNMMCQYRGMGLSMGSMICGWDKKGPGLYYVDEHGTRLSGNMFSTGSGNTYAYGVMDSGYRPNLSPEEAYDLGRRAIAYATHRDSYSGGVVNMYHMKEDGWVKVESTDVSDLLHQYREANQ [PSMB8]
target-or-test-system: Sindbis virus TE/5'2J-GFP
units-symbol: %
percent infected: 94.2
//
entry-sequence: MMAQSKANGSHYALTAIGLGMLVLGVIMAMWNLVPGFSAAEKPTAQGSNKTEVGGGILKSKTFSVAYVLVGAGVMLLLLSICLSIRDKRKQRQGEDLAHVQHPTGAGPHAQEEDSQEEEEEDEEAASRYYVPSYEEVMNTNYSEARGEEQNPRLSISLPSYESLTGLDETTPTSTRADVEASPGNPPDRQNSKLAKRLKPLKVRRIKSEKLHLKDFRINLPDKNVPPPSIEPLTPPPQYDEVQEKAPDTRPPD [TMEM51]
target-or-test-system: Sindbis virus TE/5'2J-GFP
units-symbol: %
percent infected: 92.8

Which percent infected reading was recorded for the sequence MKEDCLPSSHVPISDSKSIQKSELLGLLKTYNCYHEGKSFQLRHREEEGTLIIEGLLNIAWGLRRPIRLQMQDDREQVHLPSTSWMPRRPSCPLKEPSPQNGNITAQGPSIQPVHKAESSTDSSGPLEEAEEAPQLMRTKSDASCMSQRRPKCRAPGEAQRIRRHRFSINGHFYNHKTSVFTPAYGSVTNVRVNSTMTTLQVLTLLLNKFRVEDGPSEFALYIVHESGERTKLKDCEYPLISRILHGPCEKIARIFLMEADLGVEVPHEVAQYIKFEMPVLDSFVEKLKEEEEREIIKLTMKFQALRLTMLQRLEQLVEAK [RASSF4] ? 89.9

Would you mind telling me what percent infected value was observed for MDFKIEHTWDGFPVKHEPVFIRLNPGDRGVMMDISAPFFRDPPAPLGEPGKPFNELWDYEVVEAFFLNDITEQYLEVELCPHGQHLVLLLSGRRNVWKQELPLSFRMSRGETKWEGKAYLPWSYFPPNVTKFNSFAIHGSKDKRSYEALYPVPQHELQQGQKPDFHCLEYFKSFNFNTLLGEEWKQPESDLWLIEKCDI [C4orf33] ? 93.6

Query (sequence): MAQASPPRPERVLGASSPEARPAQEALLLPTGVFQVAEKMEKRTCALCPKDVEYNVLYFAQSENIAAHENCLLYSSGLVECEDQDPLNPDRSFDVESVKKEIQRGRKLKCKFCHKRGATVGCDLKNCNKNYHFFCAKKDDAVPQSDGVRGIYKLLCQQHAQFPIIAQSAKFSGVKRKRGRKKPLSGNHVQPPETMKCNTFIRQVKEEHGRHTDATVKVPFLKKCKEAGLLNYLLEEILDKVHSIPEKLMDETTSESDYEEIGSALFDCRLFEDTFVNFQAAIEKKIHASQQRWQQLKEEIELLQDLKQTLCSFQENRDLMSSSTSISSLSY [PHF11] ; field requested: percent infected 89.9

----------
- Tested on: Sindbis virus TE/5'2J-GFP
- experimental-details: percent infected (GFP+ in RFP+ ISG-expressing cells); higher = more infection (less antiviral activity)
- condition-details: experiment: confirmatory screen 1; BHK/NZAP-Zeo (ZAP)
property-name: percent infected
Respond with a number, then the unit of measure.

entry-sequence: MDAPHSKAALDSINELPENILLELFTHVPARQLLLNCRLVCSLWRDLIDLMTLWKRKCLREGFITKDWDQPVADWKIFYFLRSLHRNLLRNPCAEEDMFAWQIDFNGGDRWKVESLPGAHGTDFPDPKVKKYFVTSYEMCLKSQLVDLVAEGYWEELLDTFRPDIVVKDWFAARADCGCTYQLKVQLASADYFVLASFEPPPVTIQQWNNATWTEVSYTFSDYPRGVRYILFQHGGRDTQYWAGWYGPRVTNSSIVVSPKMTRNQASSEAQPGQKHGQEEAAQSPYRAVVQIF [FBXO6]
percent infected: 65.4%

# returns recorded percent infected (system: Sindbis virus TE/5'2J-GFP) for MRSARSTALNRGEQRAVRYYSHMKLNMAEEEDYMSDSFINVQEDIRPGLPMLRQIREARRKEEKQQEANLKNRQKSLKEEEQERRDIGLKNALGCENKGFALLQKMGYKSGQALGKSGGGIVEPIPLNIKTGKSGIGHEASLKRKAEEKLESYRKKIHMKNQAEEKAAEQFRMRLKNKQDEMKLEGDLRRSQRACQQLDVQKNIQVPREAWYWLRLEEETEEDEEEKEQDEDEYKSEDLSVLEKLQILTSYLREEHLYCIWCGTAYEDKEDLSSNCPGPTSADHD [CCDC75] 56.8%

State its percent infected on Sindbis virus TE/5'2J-GFP: MQEGELAISPISPVAAMPPLGTHVQARCEAQINLLGEGGICKLPGRLRIQPALWSREDVLHWLRWAEQEYSLPCTAEHGFEMNGRALCILTKDDFRHRAPSSGDVLYELLQYIKTQRRALVCGPFFGGIFRLKTPTQHSPVPPEEVTGPSQMDTRRGHLLQPPDPGLTSNFGHLDDPGLARWTPGKEESLNLCHCAELGCRTQGVCSFPAMPQAPIDGRIADCRLLWDYVYQLLLDTRYEPYIKWEDKDAKIFRVVDPNGLARLWGNHKNRVNMTYEKMSRALRHYYKLNIIKKEPGQKLLFRFLKTPGKMVQDKHSHLEPLESQEQDRIEFKDKRPEISP [ETV7] 67.2%

----------
- Tested on: Sindbis virus TE/5'2J-GFP;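 also: Interferon-defective BHK-21 derivatives, ZAP line overexpressing the rat ZAP N-terminal zinc finger domain fused to Zeocin resistance, GFP scored within live singlet TagRFP+ cells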
- experimental-details: percent infected (GFP+ in RFP+ ISG-expressing cells); higher = more infection (less antiviral activity)
- condition-details: experiment: confirmatory screen 1; BHK/NZAP-Zeo (ZAP)
property-name: percent infected (%)
Please state the figure in %; there is no need to write the unit.

entry-sequence: MASVIPASNRSMRSDRNTYVGKRFVHVKNPYLDLMDEDILYHLDLGTKTHNLPAMFGDVKFVCVGGSPNRMKAFALFMHKELGFEEAEEDIKDICAGTDRYCMYKTGPVLAISHGMGIPSISIMLHELIKLLHHARCCDVTIIRIGTSGGIGIAPGTVVITDIAVDSFFKPRFEQVILDNIVTRSTELDKELSEELFNCSKEIPNFPTLVGHTMCTYDFYEGQGRLDGALCSFSREKKLDYLKRAFKAGVRNIEMESTVFAAMCGLCGLKAAVVCVTLLDRLDCDQINLPHDVLVEYQQRPQLLISNFIRRRLGLCD [UPP2]
property-name: percent infected
units-symbol: %
recorded-number: 43.1

Hi! What's the reported percent infected for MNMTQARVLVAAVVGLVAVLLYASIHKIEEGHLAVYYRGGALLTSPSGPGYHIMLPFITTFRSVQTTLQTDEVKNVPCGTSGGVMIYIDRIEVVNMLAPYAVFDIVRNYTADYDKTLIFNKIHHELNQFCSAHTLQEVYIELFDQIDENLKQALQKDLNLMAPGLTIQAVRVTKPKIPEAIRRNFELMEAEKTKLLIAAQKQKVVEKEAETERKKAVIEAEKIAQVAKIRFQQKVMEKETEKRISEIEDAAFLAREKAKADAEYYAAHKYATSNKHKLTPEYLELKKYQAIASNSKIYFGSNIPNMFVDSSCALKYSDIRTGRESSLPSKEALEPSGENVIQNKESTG [ERLIN1] on Sindbis virus TE/5'2J-GFP? 79.2
